test system: Adoptively Transferred EAE; experiment: Inhibition of adoptively transferred EAE (clinical signs), phosphosugar delivered by subcutaneous mini-osmotic pumps; assay type: in vivo, Lewis rats; settings: summary of Tables I, III and IV

compound	inhibition of EAE (result in words)
O=C(COP(=O)(O)O)[C@@H](O)[C@H](O)[C@H](O)COP(=O)(O)O [Fructose-1,6-diphosphate, fructose-1,6-diphosphate]	partially inhibitory
O=P(O)(O)OC[C@H]1OC(O)[C@H](O)[C@@H](O)[C@H]1O (stereo partly shown) [Galactose-6-phosphate, galactose-6-phosphate]	partially inhibitory
O=P(O)(O)OC[C@H]1OC(O)[C@H](O)[C@@H](O)[C@@H]1O (stereo partly shown) [Glucose-6-phosphate, glucose-6-phosphate]	partially inhibitory
